- experiment-notes: NCI Yeast Anticancer Drug Screen. Data for the mlh1 rad18 strain (AID 175)
- condition-set: S. cerevisiae mlh1 rad18 strain growth inhibition; at 5.0 µM (retest, dose inferred, filed as 0.5); hits give high values
About 79,000 compounds went through this panel and 15% of them were active in at least one assay; those are over-represented in the sample as a whole.
measurement-kind: growth inhibition (%)
Write the number in % without appending the unit.

Exam item: Fill in the blank: the reported growth inhibition of c1ccc(-c2nc3nc4ccccc4nc3nc2-c2ccccn2)nc1 is ____.
Marked response: 14

Exam item: // query: COc1cccc(/C=C2/Sc3scc(-c4ccccc4)[n+]3C2=O)c1O
Marked response: 12

Exam item: // query: O=C(O)CSCc1cc2c3ccccc3sc2c2ccccc12
Marked response: 35

Exam item: // query: OCC(O)C(O)C(O)C(O)c1cnn(-c2ccccc2)n1 (stereo unspecified)
Marked response: -7

Exam item: // query: CC1COC(=O)O1 (stereo unspecified)
Marked response: 7

Exam item: // query: Clc1ccccc1CCc1cc(-c2ccccc2)n[nH]1
Marked response: -4

Exam item: // query: Cn1c(=O)[nH]c2nnc(-c3ccccc3)nc2c1=O
Marked response: 13

Exam item: // query: N#Cc1ccc(OC(=O)Nc2c(Cl)cccc2Cl)cc1
Marked response: 47

Exam item: // query: COc1ccc2c(Cc3cc(Cl)ccc3O)cncc2c1O
Marked response: 16

Exam item: // query: c1ccc2cc3c(ccc4cccc[n+]43)cc2c1
Marked response: 10

Exam item: // query: COc1cccc(/C=N/N(C)C)c1O
Marked response: 7
